// provenance: patent US20190106460A1

- assayedTarget: T1, HisβTrCP/Skp1 and HisβTrCP/GSTSkp1 (immobilised on NTA Biacore chip) (UniProt Q9Y297 175-605; P63208 1-163)
- T1 construct: SPR: KD values from both surfaces (with or without the GST moiety) were averaged to give the apparent KD; also called βTrCP surfaces
- T1 sequence (Q9Y297 175-605, chain 1 of 2): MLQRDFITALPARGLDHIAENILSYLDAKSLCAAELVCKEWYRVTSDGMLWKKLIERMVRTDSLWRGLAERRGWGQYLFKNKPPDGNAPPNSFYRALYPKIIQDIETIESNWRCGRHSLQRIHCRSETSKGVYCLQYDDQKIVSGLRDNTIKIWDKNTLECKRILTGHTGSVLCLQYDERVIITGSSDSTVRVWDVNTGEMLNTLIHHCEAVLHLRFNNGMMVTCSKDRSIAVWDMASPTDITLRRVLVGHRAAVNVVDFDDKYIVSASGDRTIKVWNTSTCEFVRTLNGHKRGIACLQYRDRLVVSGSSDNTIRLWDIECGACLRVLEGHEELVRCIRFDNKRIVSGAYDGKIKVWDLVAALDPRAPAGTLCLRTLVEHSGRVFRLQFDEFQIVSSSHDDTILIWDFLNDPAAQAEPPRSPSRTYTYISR
- T1 sequence (P63208 whole entry, chain 2 of 2): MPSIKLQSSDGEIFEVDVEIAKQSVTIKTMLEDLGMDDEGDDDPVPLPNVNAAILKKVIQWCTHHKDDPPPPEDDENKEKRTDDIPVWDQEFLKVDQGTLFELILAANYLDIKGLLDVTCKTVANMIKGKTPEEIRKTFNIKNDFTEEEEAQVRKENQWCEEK
- experimentNotes: SPR, Biacore T200, βTrCP/Skp1 immobilised
Starred links: 1 amine or outer side, 2 acyl side, 3 side chain; linkers in the order of their positions; H or OH if unused. Non-standard residues stand in square brackets, D forms with d. *: point of attachment. Benzenesulfonyl(4-OMe) = COc1ccc(S(=O)(=O)*)cc1; Phe(3-Cl) = N[C@@H](Cc1cccc(Cl)c1)C(=O)O; Phe(3-F) = N[C@@H](Cc1cccc(F)c1)C(=O)O; Suc = O=C(CCC(=O)[*:2])[*:1]; Tos = Cc1ccc(S(=O)(=O)*)cc1
Recorded pKd for the following binders
Entry type: numeric. Quantity: pKd, the -log10 of concentration in molar units.

Query: Returns the measured pKd for the input binder. Input: Suc-EGFFE-NH2 (SMILES NC(=O)[C@H](CCC(=O)O)NC(=O)[C@H](Cc1ccccc1)NC(=O)[C@H](Cc1ccccc1)NC(=O)CNC(=O)[C@H](CCC(=O)O)NC(=O)CCC(=O)O, also called UBP002) [Suc-EGFFE-NH2]
Response: 4.53

Query: Returns the measured pKd for the input binder. Input: Tos-[dD]EG[Phe(3-Cl)]WE-NH2 (SMILES Cc1ccc(S(=O)(=O)N[C@H](CC(=O)O)C(=O)N[C@@H](CCC(=O)O)C(=O)NCC(=O)N[C@@H](Cc2cccc(Cl)c2)C(=O)N[C@@H](Cc2c[nH]c3ccccc23)C(=O)N[C@@H](CCC(=O)O)C(N)=O)cc1, also called UBP034) [Ts-dEGF(3Cl)WE-NH2]
Response: 6.81

Query: Returns the measured pKd for the input binder. Input: {Benzenesulfonyl(4-OMe)}-[dD]EG[Phe(3-F)]WE-NH2 (SMILES COc1ccc(S(=O)(=O)N[C@H](CC(=O)O)C(=O)N[C@@H](CCC(=O)O)C(=O)NCC(=O)N[C@@H](Cc2cccc(F)c2)C(=O)N[C@@H](Cc2c[nH]c3ccccc23)C(=O)N[C@@H](CCC(=O)O)C(N)=O)cc1, also called UBP022) [4-(MeO)-PhSO2-dEGF(3F)WE-NH2]
Response: 7.32
